# assay.notes: Volume of distribution at steady state in Sprague-Dawley rat at 1 mg/kg, iv administered as single dose by LC-MS/MS method
# Format: ADME, organism-based
# condition: in vivo, read-out: Vdss
endpoint: Vd (L/kg)
Numbers only, in L/kg.

Q. Would you kindly share the measured Vd for C[C@H](c1cc(F)cc(F)c1)N(C(=O)c1ccccc1)[C@@H](C(N)=O)c1ccccc1 ?
A. 1.2

---

# assay.notes: Plasma concentration in Sprague-Dawley rat model of distension-induced rhythmic bladder contraction at 1 mg/kg, iv measured after 15 mins
# Assay type: ADME, organism-based
endpoint: concentration at […]
Give the number first and the unit second.

Q. Would you kindly share the measured concentration at […] for C[C@H](c1cc(F)cc(F)c1)N(C(=O)c1ccccc1)[C@@H](C(N)=O)c1ccccc1 ?
A. 1120 nM

---

# assay.notes: Bioavailability in Sprague-Dawley rat at 10 mg/kg, po administered as single dose by LC-MS/MS method
# Type: ADME, organism-based
# condition: in vivo
endpoint: bioavailability (%)
One number for each entry, in %.

Q. Would you kindly share the measured bioavailability for C[C@H](c1cc(F)cc(F)c1)N(C(=O)c1ccccc1)[C@@H](C(N)=O)c1ccccc1 ?
A. 59

---

# assay.notes: Cmax in Sprague-Dawley rat at 10 mg/kg, po administered as single dose by LC-MS/MS method
# Format: ADME, organism-based
# Set-up: dose 10 mg/kg, route oral
# condition: in vivo
endpoint: Cmax (µM)
Numbers only, in µM.

Q. Would you kindly share the measured Cmax for C[C@H](c1cc(F)cc(F)c1)N(C(=O)c1ccccc1)[C@@H](C(N)=O)c1ccccc1 ?
A. 3.23
